test system: SNB-75 CNS; test: NCI tumour cell line growth inhibition, 48 h
Parameter threshold = 30 µM. Response is criterion met when TGI meets or exceeds it, else criterion not met.

{"compound": "CCOC(=O)/C(C#N)=c1/s/c(=C(\\O)N/N=C/c2ccc(OC)cc2)c(=N)n1-c1ccccc1", "class": "criterion not met"}
{"compound": "Cc1cc(C)c(CNC(=O)c2cc(Cl)c3c(c2C)O[C@@](C)(C2CCC(N(C)C)CC2)O3)c(=O)[nH]1 (stereo not given in full)", "class": "criterion met"}
{"compound": "CC(=O)C1=C(C)N2C(=NC3=C(CCc4ccccc43)C2c2ccc(Cl)cc2)S1 (stereo not given)", "class": "criterion met"}
{"compound": "O=C1N(c2ccccc2)C2(O)C(=O)c3ccccc3C2(O)N1c1ccccc1 (stereo not given)", "class": "criterion met"}
{"compound": "CN1CN(c2ccccc2)C2(CCN(CCCN(C)c3ccc(F)cc3)CC2)C1=O", "class": "criterion met"}
{"compound": "CS(=O)c1cc(=O)c2ccccc2s1 (stereo not given)", "class": "criterion not met"}
{"compound": "CCn1nc(C#Cc2c(C)ccc3c(Nc4ccc(Cl)cc4)nccc23)c2c(N)ncnc21", "class": "criterion met"}
{"compound": "COc1cc(/C=C2\\C(=O)Nc3ccc(O)cc32)cc(OC)c1OC", "class": "criterion met"}
{"compound": "COc1ccc(Cc2nc3cc(C(F)(F)F)ccc3n2C[C@@H]2CCCN3CCCCC23)cc1 (stereo not given in full)", "class": "criterion met"}
{"compound": "N#CN1CCC2CC(=O)CCC2C1 (stereo not given)", "class": "criterion met"}
{"compound": "COc1ccc2nc3cc(Cl)ccc3c(NCCCN(C)CCCNc3ccc4ncn5c6ccccc6c(=O)c3c45)c2c1", "class": "criterion not met"}
{"compound": "COc1cc(/C=C(\\C#N)C(=O)c2ccccc2)cc(OC)c1OC", "class": "criterion met"}
{"compound": "Cc1nnc(NS(=O)(=O)c2ccc(N=Nc3c(O)c(C(=O)O)cc4ccccc34)cc2)s1", "class": "criterion met"}
{"compound": "N#CSc1c[nH]c2cccc(/C=C/C(=O)/C=C(O)/C=C/c3cccc4[nH]cc(SC#N)c34)c12", "class": "criterion not met"}
{"compound": "Cc1c(CNc2ccc(Cl)c(Cl)c2Cl)cnc2nc(N)nc(N)c12", "class": "criterion not met"}
{"compound": "C=C(CN1CCc2ccccc2C1)c1ccc(C(=O)Nc2cccc(N)c2)cc1", "class": "criterion met"}
{"compound": "COc1nc2c(c(=O)[nH]1)N=C(c1ccc([N+](=O)[O-])cc1)CC(c1ccccc1)N2 (stereo not given)", "class": "criterion met"}
{"compound": "O=C(Nc1cc(Cl)ccc1Cl)c1cc2ccccc2oc1=O", "class": "criterion met"}
